B1: SAM and SH3 domain-containing protein 1, residues 630 to 700; numbered along this chain, O94885 (parent)
chain: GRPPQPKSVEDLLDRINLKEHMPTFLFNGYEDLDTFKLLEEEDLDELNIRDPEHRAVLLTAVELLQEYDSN

variants of: B1; assay: abundance fitness (aPCA) (normalised: wild type 0, dead -1); higher = more abundant; growth selection in yeast, the domain comes from the species named; settings: Homo sapiens
Observation type: abundance fitness
Numbers only.

Example results:
>>> result_value("E41C")
-0.483
>>> result_value("K37A")
-0.226
>>> result_value("L13K")
-0.715
>>> result_value("L65P")
-0.88
>>> result_value("F25H")
-0.924
>>> result_value("R50H")
0.072
>>> result_value("M22T")
0.009
>>> result_value("R50D")
-0.057
>>> result_value("E63M")
-0.492
>>> result_value("L38Y")
-0.117

We next turn to a different variant, shown below.
For reference, reported abundance fitness for L26A stands at -0.117

Every entry's value here was drawn from the Human Domainome abundance scans (Beltran et al. 2025).
